target: mitochondrial complex I (NADH-ubiquinone reductase; NADH-decyl rhodoquinone reductase) (Echinococcus multilocularis, UniProt Q9TE76); construct: gene ND1; native multi-subunit complex I in freeze-thawed enriched mitochondrial fraction of protoscoleces; not purified; experiment: spectrophotometric NADH-quinone reductase assay, mitochondrial fraction; type: biochemical; conditions: quinone acceptor decyl rhodoquinone (methods; table heads it NADH-ubiquinone reductase), 30 mM potassium phosphate, 1 mM MgCl2, pH 7.5, 25 °C
Sequence (Q9TE76 1-297): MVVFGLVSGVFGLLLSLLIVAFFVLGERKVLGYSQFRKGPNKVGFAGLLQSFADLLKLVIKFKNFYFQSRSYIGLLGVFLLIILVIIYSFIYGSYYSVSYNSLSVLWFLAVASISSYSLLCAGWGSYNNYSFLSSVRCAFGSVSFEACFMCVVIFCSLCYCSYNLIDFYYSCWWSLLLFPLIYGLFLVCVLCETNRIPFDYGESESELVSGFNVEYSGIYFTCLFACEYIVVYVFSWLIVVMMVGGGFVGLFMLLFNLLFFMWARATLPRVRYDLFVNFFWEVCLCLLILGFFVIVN
Sequence (A0A068Y9L9 30-218 partner): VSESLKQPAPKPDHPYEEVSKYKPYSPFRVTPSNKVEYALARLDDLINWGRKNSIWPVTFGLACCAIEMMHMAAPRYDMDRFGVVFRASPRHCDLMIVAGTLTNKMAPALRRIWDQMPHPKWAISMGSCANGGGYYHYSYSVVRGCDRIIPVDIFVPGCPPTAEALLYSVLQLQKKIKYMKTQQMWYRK
Sequence (A0A068YF50 31-207 partner): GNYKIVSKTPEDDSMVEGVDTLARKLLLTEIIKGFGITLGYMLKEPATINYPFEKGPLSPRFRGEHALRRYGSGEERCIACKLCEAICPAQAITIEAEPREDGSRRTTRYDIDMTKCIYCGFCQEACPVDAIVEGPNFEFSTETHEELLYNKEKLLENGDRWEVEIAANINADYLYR
Property Measured: IC50 (µM)

>>> observed("Cc1cc(/C=C/c2ccc3cc(N(C)C)ccc3[n+]2C)c(C)n1-c1ccccc1 [pyrvinium pamoate]")
11

---

target: mitochondrial complex II (succinate-quinone reductase, SQR) (Echinococcus multilocularis, UniProt A0A1Z4EAV8+A0A1Z4EAW8+A0A1Z4EAX0+A0A1Z4EAX1); construct: gene SDHB1; native complex II in freeze-thawed enriched mitochondrial fraction of protoscoleces; not purified; assay: spectrophotometric succinate-quinone reductase assay, mitochondrial fraction; assay type: biochemical; conditions: 30 mM potassium phosphate, 1 mM MgCl2, pH 7.5, 25 °C, read-out: Succinate-quinone reductase: SQR / (Complex II)
Sequence (A0A1Z4EAX0 21-272): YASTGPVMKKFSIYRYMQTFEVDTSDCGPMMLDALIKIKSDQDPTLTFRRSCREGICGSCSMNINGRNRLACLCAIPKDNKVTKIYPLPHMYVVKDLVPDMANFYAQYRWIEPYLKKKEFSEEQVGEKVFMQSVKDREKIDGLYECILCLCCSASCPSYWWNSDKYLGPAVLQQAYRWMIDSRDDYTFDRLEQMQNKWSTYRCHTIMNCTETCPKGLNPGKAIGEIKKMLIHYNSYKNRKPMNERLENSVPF
Sequence (A0A1Z4EAX1 53-194): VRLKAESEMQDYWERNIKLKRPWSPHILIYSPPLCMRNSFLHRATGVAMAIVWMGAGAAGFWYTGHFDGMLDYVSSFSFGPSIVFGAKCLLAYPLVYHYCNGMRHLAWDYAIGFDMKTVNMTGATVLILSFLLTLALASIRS
Sequence (A0A1Z4EAW8 47-153): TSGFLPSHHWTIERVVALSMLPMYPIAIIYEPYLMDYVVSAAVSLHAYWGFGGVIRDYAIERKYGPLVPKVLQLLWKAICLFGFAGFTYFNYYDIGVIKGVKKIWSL
Sequence (A0A1Z4EAV8 26-648): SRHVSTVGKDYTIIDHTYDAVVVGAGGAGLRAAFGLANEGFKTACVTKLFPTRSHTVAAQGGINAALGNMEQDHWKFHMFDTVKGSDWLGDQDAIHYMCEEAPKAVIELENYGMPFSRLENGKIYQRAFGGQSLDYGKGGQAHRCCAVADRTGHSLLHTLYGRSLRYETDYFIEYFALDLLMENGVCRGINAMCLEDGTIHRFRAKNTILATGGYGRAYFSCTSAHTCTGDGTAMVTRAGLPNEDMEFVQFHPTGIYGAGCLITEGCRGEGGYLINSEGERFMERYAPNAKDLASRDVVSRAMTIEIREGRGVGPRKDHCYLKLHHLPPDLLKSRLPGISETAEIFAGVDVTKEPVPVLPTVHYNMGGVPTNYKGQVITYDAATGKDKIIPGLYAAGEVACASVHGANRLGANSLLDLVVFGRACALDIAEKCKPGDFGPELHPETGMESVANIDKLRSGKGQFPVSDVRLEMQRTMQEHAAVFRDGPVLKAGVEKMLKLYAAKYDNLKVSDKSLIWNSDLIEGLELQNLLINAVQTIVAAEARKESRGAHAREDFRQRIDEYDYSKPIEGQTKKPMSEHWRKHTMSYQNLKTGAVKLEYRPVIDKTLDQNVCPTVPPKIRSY
pIC50: −log10 of the molar value.
Property Measured: pIC50

>>> observed("Cc1cc(/C=C/c2ccc3cc(N(C)C)ccc3[n+]2C)c(C)n1-c1ccccc1 [pyrvinium pamoate]")
"< 4.52"

---

target: succinate-cytochrome c reductase (mitochondrial complexes II and III) (Echinococcus multilocularis, UniProt Q9TE80); construct: gene Cytb; coupled activity of native complexes II and III in freeze-thawed enriched mitochondrial fraction of protoscoleces; not purified; with Succinate dehydrogenase [ubiquinone] flavoprotein subunit, mitochondrial; Succinate dehydrogenase [ubiquinone] iron-sulfur subunit, mitochondrial; Succinate dehydrogenase [ubiquinone] cytochrome b large subunit, mitochondrial; Succinate dehydrogenase [ubiquinone] cytochrome b small subunit, mitochondrial; assay: spectrophotometric succinate-cytochrome c reductase assay, mitochondrial fraction; assay type: biochemical; conditions: coupled complex II and III activity, 30 mM potassium phosphate, 1 mM MgCl2, pH 7.5, 25 °C, read-out: Succinate-quinone reductase: SQR / (Complex II)
Sequence (Q9TE80 1-355): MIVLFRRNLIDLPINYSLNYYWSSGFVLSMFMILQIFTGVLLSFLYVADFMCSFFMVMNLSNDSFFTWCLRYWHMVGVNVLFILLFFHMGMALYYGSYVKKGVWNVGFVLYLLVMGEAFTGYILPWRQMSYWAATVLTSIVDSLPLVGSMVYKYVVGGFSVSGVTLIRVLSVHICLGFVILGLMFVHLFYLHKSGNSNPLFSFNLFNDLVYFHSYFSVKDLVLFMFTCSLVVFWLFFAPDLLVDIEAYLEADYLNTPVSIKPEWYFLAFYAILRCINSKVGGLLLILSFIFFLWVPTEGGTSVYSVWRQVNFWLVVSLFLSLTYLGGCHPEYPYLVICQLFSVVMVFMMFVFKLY
Sequence (Q9GP40 whole entry partner): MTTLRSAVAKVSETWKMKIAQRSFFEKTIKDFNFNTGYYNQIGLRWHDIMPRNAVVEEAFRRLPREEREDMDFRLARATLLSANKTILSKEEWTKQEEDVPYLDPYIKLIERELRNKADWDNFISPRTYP
Sequence (A0A1Z4EAV8 26-648 partner): as the sequence (A0A1Z4EAV8 26-648) above
Sequence (A0A1Z4EAX0 21-272 partner): as the sequence (A0A1Z4EAX0 21-272) above
Sequence (A0A1Z4EAX1 53-194 partner): as the sequence (A0A1Z4EAX1 53-194) above
Sequence (A0A1Z4EAW8 47-153 partner): as the sequence (A0A1Z4EAW8 47-153) above
Property Measured: IC50

>>> observed("Cc1cc(/C=C/c2ccc3cc(N(C)C)ccc3[n+]2C)c(C)n1-c1ccccc1 [pyrvinium pamoate]")
"> 30 µM"
